- assay.system: T1, IL13Rα Protein, Human, Recombinant, His Tag (human IL13Rα1) (human, UniProt P78552 22-343)
- T1 chain: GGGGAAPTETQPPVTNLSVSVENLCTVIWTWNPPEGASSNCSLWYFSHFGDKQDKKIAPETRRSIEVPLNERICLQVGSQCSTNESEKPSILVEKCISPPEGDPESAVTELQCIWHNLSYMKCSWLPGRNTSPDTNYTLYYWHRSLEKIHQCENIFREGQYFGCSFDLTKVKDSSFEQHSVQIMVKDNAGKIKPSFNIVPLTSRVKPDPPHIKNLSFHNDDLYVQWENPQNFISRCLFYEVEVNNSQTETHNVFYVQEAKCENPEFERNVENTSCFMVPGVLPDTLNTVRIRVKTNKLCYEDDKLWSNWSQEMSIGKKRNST
- assay.protocol: SPR; kinetic
quantity.measured: Kd (nM)

# binder, quantity.measured, obs.value
rows = [
    ("A6 (protein) PGPVPPSTAIRELIEELLNITQNQKAPLCNGSMVWSINLTAGMYCAALESLINVSGCSAIEKTQRMLSGFCPHKVSAGQFSSLHVMKSKIEVAQFVKDLLHHLRALFREGQFN", "Kd", 1.9),
]

a = B6 (protein) PGPVPPSTATRELIEELINITQNQKAPLCNGSMVWSINLTAGMYCAALESLINVSGCSAIEKTQRMLSGFCPHKVSAGQFSSLHVRGSKIEVAQFVKDLLYHLRTLFREGQFN
b = A8 (protein) PGPVPPSTAIRELIEELINITQNQKAPLCNGSMVWSINLTAGMYCAALESLINVSGCSAIEKTQRMLSGFCPHKVSAGQFSSLHVRSSRIEVAQFVKDLLHHLRTLFREGQFN
c = A7 (protein) PGPVPPSTAIRELIEELINITQNQKAPLCNGSMVWSINLTAGMYCAALESLINVSGCSAIEKTQRMLSGFCPHKVSAGQFSSLHVRGSKIEVAQFVKDLLHHLRALFREGQFN
IN: Arrange items by their Kd values in increasing order. Please express your ranking as an ordered list of the labels.
OUT: c, b, a
(c: 1.18 nM, b: 2.06 nM, a: 5.9 nM)
